- EXPERIMENTAL TARGET: recombinant GSDMD (human, full-length) (Homo sapiens, UniProt P57764)
- Sequence (P57764 whole entry): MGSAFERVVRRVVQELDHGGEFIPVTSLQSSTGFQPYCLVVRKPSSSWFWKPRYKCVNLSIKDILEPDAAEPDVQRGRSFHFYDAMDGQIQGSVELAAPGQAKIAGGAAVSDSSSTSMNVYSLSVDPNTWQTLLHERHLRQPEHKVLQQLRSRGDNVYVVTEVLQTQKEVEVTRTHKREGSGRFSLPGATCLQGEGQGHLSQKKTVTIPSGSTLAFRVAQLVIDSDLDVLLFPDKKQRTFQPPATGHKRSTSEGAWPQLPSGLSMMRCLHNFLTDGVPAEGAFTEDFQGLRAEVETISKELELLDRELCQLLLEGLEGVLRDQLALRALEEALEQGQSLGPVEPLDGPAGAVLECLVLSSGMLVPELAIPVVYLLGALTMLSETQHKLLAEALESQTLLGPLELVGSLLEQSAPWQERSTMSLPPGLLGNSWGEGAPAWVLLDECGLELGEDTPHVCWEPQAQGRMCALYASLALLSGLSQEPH
- ASSAY TEXT: surface plasmon resonance, Biacore T200
RESULT TYPE: Kd (µM)
The reply should be a number in µM, with the unit left off.

// sample COc1nccnc1NS(=O)(=O)c1ccc(NC(=O)/C=C/c2ccc([N+](=O)[O-])s2)cc1 [necrosulfonamide] , its Kd was 32
